# assayRemarks: Caspase-3/7 induction in HepG2 cells by small molecules, qHTS cell viability counter screen (AID 1346981); further: nearly all actives have a fitted effect of over 30% in size
# settings: CellTiter-Fluor fluorescence, 17 h; series mostly up to 92.4 µM
Inconclusive results are not listed. Activity calls are given as the source filed them. The call rests on the fitted dose curve; in most records, active means well fitted cell-killing curve with a large enough effect in the repeat runs; inconclusive means weak or mixed curves, or effect the other way; inactive means flat fitted curve, though single readings scatter.
outcomeMeasure: outcome

>>> value("O=CC(=O)c1ccccc1")
"inactive"
>>> value("CCN(Cc1c(F)cccc1Cl)c1c([N+](=O)[O-])cc(C(F)(F)F)cc1[N+](=O)[O-]")
"inactive"
>>> value("CCOC(N)=O")
"inactive"

* * *

# assayRemarks: qHTS assay to identify small molecule agonists of the retinoic acid receptor (RAR) signaling pathway (AID 1159553)
# settings: C3RL4 RARE luciferase reporter, agonist, 6 h; series mostly up to 73.3 µM
Inconclusive results are not listed. Active and inactive are the calls of the source. The call rests on the fitted dose curve; in most records, active means well fitted activation curve with a large enough effect in the repeat runs; inconclusive means weak or mixed curves, or effect the other way; inactive means no such curve, though single readings can be large or run the other way.
Write down the outcome that applies. Available outcomes: T for active, F for inactive

Prompt: Please let me know the test result on file for O=c1[nH]cnc2c1ncn2[C@H]1CC[C@@H](CO)O1 .
Completion: F

Prompt: Now this one: Nc1ccc2c(c1)CN1C(=O)c3ccccc3C1=N2
Completion: T

Prompt: Now this one: Oc1ccccc1
Completion: F

Prompt: Now this one: O=C1OC2(c3ccccc31)c1cc(Br)c(O)c(Br)c1Oc1c2cc(Br)c(O)c1Br
Completion: F

Prompt: Now this one: CC1(C)O[C@@H]2C[C@H]3[C@@H]4CCC5=CC(=O)C=C[C@]5(C)[C@@]4(F)[C@@H](O)C[C@]3(C)[C@]2(C(=O)CO)O1
Completion: F

Prompt: Now this one: O=C1NS(=O)(=O)c2ccccc21
Completion: F

Prompt: Now this one: CCCC[P+](CCCC)(CCCC)CCCC
Completion: F

Prompt: Now this one: CS(=O)(=O)OCCCCOS(C)(=O)=O
Completion: F

Prompt: Now this one: COc1ccc2c(c1)c(CC(=O)O)c(C)n2C(=O)c1ccc(Cl)cc1
Completion: F

Prompt: Now this one: COc1ccc2cc(S(=O)(=O)N[C@H](CC(=O)N[C@H](Cc3ccc(CN4[C@H](C)CCC[C@@H]4C)cc3)C(=O)N(C)C(C)C)c3ccc4c(c3)OCO4)ccc2c1
Completion: F
